test system: M. tuberculosis H37Rv_LuxABCDE; test: microbe, parasite or virus in culture; type: cell-based, Mycobacterium tuberculosis; conditions: Mycobacterium tuberculosis, day 7, SD from three independent experiments, read-out: MBC (±SD) via CFU
Rule: MBC below 0.4 µM gives rule met. Equal to or above 0.4 µM gives rule not met.

Task: Given the entry [H]/N=C(/N)N[C@H]1[C@H](O)[C@@H](O)[C@H](O[C@@H]2O[C@@H](C)[C@](O)(C=O)[C@H]2O[C@@H]2O[C@@H](CO)[C@H](O)[C@@H](O)[C@@H]2NC)[C@@H](N/C(N)=N\[H])[C@@H]1O [Streptomycin] , would its reported MBC be below 0.4 µM?
Result: rule met

Task: Given the entry CC(C)/N=c1\cc2n(-c3ccc(Cl)cc3)c3ccccc3nc-2cc1Nc1ccc(Cl)cc1 [Clofazimine] , would its reported MBC be below 0.4 µM?
Result: rule not met

Task: Given the entry CC(=O)NC[C@H]1CN(c2ccc(N3CCOCC3)c(F)c2)C(=O)O1 [Linezolid] , would its reported MBC be below 0.4 µM?
Result: rule not met

Task: Given the entry CC[C@@H](CO)NCCN[C@@H](CC)CO [Ethambutol] , would its reported MBC be below 0.4 µM?
Result: rule not met

Task: Given the entry COc1c(N2C[C@@H]3CCCN[C@@H]3C2)c(F)cc2c(=O)c(C(=O)O)cn(C3CC3)c12 [Moxifloxacin] , would its reported MBC be below 0.4 µM?
Result: rule not met

Task: Given the entry O=[N+]([O-])c1cn2c(n1)OC[C@@H](OCc1ccc(OC(F)(F)F)cc1)C2 [Pretomanid] , would its reported MBC be below 0.4 µM?
Result: rule not met

Task: Given the entry COc1nc2ccc(Br)cc2cc1[C@@H](c1ccccc1)[C@@](O)(CCN(C)C)c1cccc2ccccc12 [Bedaquiline] , would its reported MBC be below 0.4 µM?
Result: rule met

Task: Given the entry NNC(=O)c1ccncc1 [Isoniazid] , would its reported MBC be below 0.4 µM?
Result: rule not met

* * *

test system: M. tuberculosis H37Rv_LuxABCDE; assay: luminescence-based MBC assay (LMBCA) / time-kill; assay type: cell-based, Mycobacterium tuberculosis; conditions: day 7; 99% reduction in RLU vs T0; SD from three independent experiments
Marks after values point to notes of the source that are not given here. *1 amine or outer side, *2 acyl side, *3 side chain or, on linkers, in order; H or OH if unused. Where a SMILES comes first, the peptide text is derived from it. Bridges are numbered along the chain shown (N, C = ends). [ ]: non-standard residue; d: D form. The star is where a group is joined. Phe(3R-OH) = O=C([C@@H](N[*:1])[C@H](O[*:3])c1ccccc1)[*:2]; NMeTrp(4-OMe) = CN[C@@H](Cc1c[nH]c2cccc(OC)c12)C(=O)O; NMeaIle = CC[C@@H](C)[C@H](NC)C(=O)O; NMe2Val = CC(C)[C@@H](C(=O)*)N(C)C; NMeT = CN[C@H](C(=O)O)[C@@H](C)O; NMeL = CN[C@@H](CC(C)C)C(=O)O; NMeV = CN[C@H](C(=O)O)C(C)C
MEASURED QUANTITY: MBC (±SD) via luminescence

Task: Would you kindly share the measured MBC (±SD) via luminescence for CC[C@@H](CO)NCCN[C@@H](CC)CO [Ethambutol] ?
Result: 9.2 (2.7) μM

Task: Would you kindly share the measured MBC (±SD) via luminescence for CC[C@@H](C)[C@@H](C(=O)N[C@@H]1C(=O)N(C)[C@@H]([C@@H](C)O)C(=O)N[C@@H](C(C)C)C(=O)N(C)[C@@H](CC(C)C)C(=O)N[C@@H](C(C)C)C(=O)N(C)[C@@H](C(C)C)C(=O)N(C)[C@@H](Cc2c[nH]c3cccc(OC)c23)C(=O)N[C@@H](C(C)C)C(=O)N[C@@H]([C@H](O)c2ccccc2)C(=O)N[C@@H](C(C)C)C(=O)O[C@@H]1C)N(C)C(=O)[C@@H](NC(=O)[C@H](C(C)C)N(C)C)C(C)C [Ecumicin] (NMe2Val-V[NMeaIle]T[NMeT]V[NMeL]V[NMeV][NMeTrp(4-OMe)]V[Phe(3R-OH)]V; ester 3-C) ?
Result: 0.22 (0.1) μM

Task: Would you kindly share the measured MBC (±SD) via luminescence for C/C=C/C[C@@H]1NC(=O)[C@H](CC(C)C)N2C(=O)[C@H](C[C@H](C)C2O)N(C)C(=O)[C@H](C)NC(=O)[C@H](Cc2ccc(O)c([N+](=O)[O-])c2)NC(=O)[C@H](CC(C)C)N(C)C(=O)[C@H](Cc2cn(C(C)(C)C3CO3)c3ccccc23)NC1=O (stereo partly shown) [Rufomycin] ?
Result: >1^c μM

Task: Would you kindly share the measured MBC (±SD) via luminescence for CC(C)/N=c1\cc2n(-c3ccc(Cl)cc3)c3ccccc3nc-2cc1Nc1ccc(Cl)cc1 [Clofazimine] ?
Result: 1.8 (0.19) μM

* * *

test system: M. tuberculosis H37Rv_LuxABCDE; type: cell-based, Mycobacterium tuberculosis; conditions: 3 h exposure at 10× MIC, 1:10,000-fold dilution
*1 amine or outer side, *2 acyl side, *3 side chain or, on linkers, in order; H or OH if unused. Where a SMILES comes first, the peptide text is derived from it. Bridges are numbered along the chain shown (N, C = ends). [ ]: non-standard residue; d: D form. The star is where a group is joined. Phe(3R-OH) = O=C([C@@H](N[*:1])[C@H](O[*:3])c1ccccc1)[*:2]; NMeTrp(4-OMe) = CN[C@@H](Cc1c[nH]c2cccc(OC)c12)C(=O)O; NMeaIle = CC[C@@H](C)[C@H](NC)C(=O)O; NMe2Val = CC(C)[C@@H](C(=O)*)N(C)C; NMeT = CN[C@H](C(=O)O)[C@@H](C)O; NMeL = CN[C@@H](CC(C)C)C(=O)O; NMeV = CN[C@H](C(=O)O)C(C)C
Hi there, I'd appreciate the recorded PAE 10× MIC CFU/ml for every entry that follows.
Give the value, in units of h, as a plain number.

Task: Would you kindly share the measured PAE 10× MIC CFU/ml for C/C=C/C[C@@H]1NC(=O)[C@H](CC(C)C)N2C(=O)[C@H](C[C@H](C)C2O)N(C)C(=O)[C@H](C)NC(=O)[C@H](Cc2ccc(O)c([N+](=O)[O-])c2)NC(=O)[C@H](CC(C)C)N(C)C(=O)[C@H](Cc2cn(C(C)(C)C3CO3)c3ccccc23)NC1=O (stereo partly shown) [Rufomycin] ?
Result: 48

Task: Would you kindly share the measured PAE 10× MIC CFU/ml for NNC(=O)c1ccncc1 [Isoniazid] ?
Result: 0

Task: Would you kindly share the measured PAE 10× MIC CFU/ml for CO[C@H]1/C=C/O[C@@]2(C)Oc3c(C)c(O)c4c(O)c(c(/C=N/N5CCN(C)CC5)c(O)c4c3C2=O)NC(=O)/C(C)=C\C=C\[C@H](C)[C@H](O)[C@@H](C)[C@@H](O)[C@@H](C)[C@H](OC(C)=O)[C@@H]1C [Rifampin] ?
Result: 30

Task: Would you kindly share the measured PAE 10× MIC CFU/ml for CC[C@@H](C)[C@@H](C(=O)N[C@@H]1C(=O)N(C)[C@@H]([C@@H](C)O)C(=O)N[C@@H](C(C)C)C(=O)N(C)[C@@H](CC(C)C)C(=O)N[C@@H](C(C)C)C(=O)N(C)[C@@H](C(C)C)C(=O)N(C)[C@@H](Cc2c[nH]c3cccc(OC)c23)C(=O)N[C@@H](C(C)C)C(=O)N[C@@H]([C@H](O)c2ccccc2)C(=O)N[C@@H](C(C)C)C(=O)O[C@@H]1C)N(C)C(=O)[C@@H](NC(=O)[C@H](C(C)C)N(C)C)C(C)C [Ecumicin] (NMe2Val-V[NMeaIle]T[NMeT]V[NMeL]V[NMeV][NMeTrp(4-OMe)]V[Phe(3R-OH)]V; ester 3-C) ?
Result: 10

* * *

test system: M. tuberculosis H37Rv_LuxABCDE; assay: microplate alamarBlue assay (MABA) MIC; conditions: 90% reduction of fluorescence, 7 days, 7H12 medium; SD from three independent experiments
*1 amine or outer side, *2 acyl side, *3 side chain or, on linkers, in order; H or OH if unused. Where a SMILES comes first, the peptide text is derived from it. Bridges are numbered along the chain shown (N, C = ends). [ ]: non-standard residue; d: D form. The star is where a group is joined. Phe(3R-OH) = O=C([C@@H](N[*:1])[C@H](O[*:3])c1ccccc1)[*:2]; NMeTrp(4-OMe) = CN[C@@H](Cc1c[nH]c2cccc(OC)c12)C(=O)O; NMeaIle = CC[C@@H](C)[C@H](NC)C(=O)O; NMe2Val = CC(C)[C@@H](C(=O)*)N(C)C; NMeT = CN[C@H](C(=O)O)[C@@H](C)O; NMeL = CN[C@@H](CC(C)C)C(=O)O; NMeV = CN[C@H](C(=O)O)C(C)C
Hi there, I'd appreciate the recorded MIC (±SD) MABA for every entry that follows.

Task: Would you kindly share the measured MIC (±SD) MABA for CC[C@@H](C)[C@@H](C(=O)N[C@@H]1C(=O)N(C)[C@@H]([C@@H](C)O)C(=O)N[C@@H](C(C)C)C(=O)N(C)[C@@H](CC(C)C)C(=O)N[C@@H](C(C)C)C(=O)N(C)[C@@H](C(C)C)C(=O)N(C)[C@@H](Cc2c[nH]c3cccc(OC)c23)C(=O)N[C@@H](C(C)C)C(=O)N[C@@H]([C@H](O)c2ccccc2)C(=O)N[C@@H](C(C)C)C(=O)O[C@@H]1C)N(C)C(=O)[C@@H](NC(=O)[C@H](C(C)C)N(C)C)C(C)C [Ecumicin] (NMe2Val-V[NMeaIle]T[NMeT]V[NMeL]V[NMeV][NMeTrp(4-OMe)]V[Phe(3R-OH)]V; ester 3-C) ?
Result: 0.081 (0.02) μM

Task: Would you kindly share the measured MIC (±SD) MABA for CC(C)/N=c1\cc2n(-c3ccc(Cl)cc3)c3ccccc3nc-2cc1Nc1ccc(Cl)cc1 [Clofazimine] ?
Result: 0.014 (0.02) μM

Task: Would you kindly share the measured MIC (±SD) MABA for COc1nc2ccc(Br)cc2cc1[C@@H](c1ccccc1)[C@@](O)(CCN(C)C)c1cccc2ccccc12 [Bedaquiline] ?
Result: 0.021 (0.01) μM

Task: Would you kindly share the measured MIC (±SD) MABA for [H]/N=C(/N)N[C@H]1[C@H](O)[C@@H](O)[C@H](O[C@@H]2O[C@@H](C)[C@](O)(C=O)[C@H]2O[C@@H]2O[C@@H](CO)[C@H](O)[C@@H](O)[C@@H]2NC)[C@@H](N/C(N)=N\[H])[C@@H]1O [Streptomycin] ?
Result: 0.12 (0.02) μM

Task: Would you kindly share the measured MIC (±SD) MABA for NNC(=O)c1ccncc1 [Isoniazid] ?
Result: 0.30 (0.05) μM

Task: Would you kindly share the measured MIC (±SD) MABA for CC[C@@H](CO)NCCN[C@@H](CC)CO [Ethambutol] ?
Result: 2.0 (0.41) μM

Task: Would you kindly share the measured MIC (±SD) MABA for O=[N+]([O-])c1cn2c(n1)OC[C@@H](OCc1ccc(OC(F)(F)F)cc1)C2 [Pretomanid] ?
Result: 0.49 (0.02) μM

Task: Would you kindly share the measured MIC (±SD) MABA for COc1c(N2C[C@@H]3CCCN[C@@H]3C2)c(F)cc2c(=O)c(C(=O)O)cn(C3CC3)c12 [Moxifloxacin] ?
Result: 0.24 (0.04) μM

Task: Would you kindly share the measured MIC (±SD) MABA for CC(=O)NC[C@H]1CN(c2ccc(N3CCOCC3)c(F)c2)C(=O)O1 [Linezolid] ?
Result: 1.7 (0.10) μM

Task: Would you kindly share the measured MIC (±SD) MABA for C/C=C/C[C@@H]1NC(=O)[C@H](CC(C)C)N2C(=O)[C@H](C[C@H](C)C2O)N(C)C(=O)[C@H](C)NC(=O)[C@H](Cc2ccc(O)c([N+](=O)[O-])c2)NC(=O)[C@H](CC(C)C)N(C)C(=O)[C@H](Cc2cn(C(C)(C)C3CO3)c3ccccc23)NC1=O (some centres unmarked) [Rufomycin] ?
Result: 0.032 (0.012) μM

Task: Would you kindly share the measured MIC (±SD) MABA for CO[C@H]1/C=C/O[C@@]2(C)Oc3c(C)c(O)c4c(O)c(c(/C=N/N5CCN(C)CC5)c(O)c4c3C2=O)NC(=O)/C(C)=C\C=C\[C@H](C)[C@H](O)[C@@H](C)[C@@H](O)[C@@H](C)[C@H](OC(C)=O)[C@@H]1C [Rifampin] ?
Result: 0.060 (0.01) μM
